B1: KIAA1671 peptide 600-615 (Uncharacterized protein KIAA1671), 16-mer library wild type / MDM2 SWIB (MDM2 SWIB/MDM2 domain, residues 17-125) (parent)
chain 1: TPEDDRSFQTVWATVF
chain 2: SQIPASEQETLVRPKPLLLKLLKSVGAQKDTYTMKEVLFYLGQYIMTKRLYDEKQQHIVYCSNDLLGDLFGVPSFSVKEHRKIYTMIYRNLVVVNQQESSDSGTSVSEN

Variants of: B1
Assay: proteomic peptide phage display deep mutational scan (ProP-PD DMS): M13 P8 16-mer library selected against immobilised GST-tagged bait for four days (rounds), NGS of the eluted pools per day and pseudo-replica
Details: with MDM2 SWIB (MDM2 SWIB/MDM2 domain, residues 17-125); bait immobilised on MaxiSorp plates (10 µg), library pre-cleared on GST, 2 h binding at 4 °C, five washes; one round per day, days 1-4; value from days 2 and 3; keep out of graded; scale: average fractional NGS count over selection days 2 and 3
experimental_endpoint: screen value
# print the numeric value only

Examples with their reported screen value follow.
[Q] Recorded screen value for chain 1 T14M , please?
[A] 0.00063

[Q] Thanks! And chain 1 P2F ?
[A] 5.33e-05

[Q] Thanks! And chain 1 E3R ?
[A] 0.000648

Continuing:
[Q] Recorded screen value for chain 1 F16G , please?
[A] 0

[Q] Thanks! And chain 1 V11N ?
[A] 0

[Q] Thanks! And chain 1 P2H ?
[A] 4.89e-05

[Q] Thanks! And chain 1 T14H ?
[A] 4.28e-05

[Q] Thanks! And chain 1 P2G ?
[A] 0.000243

[Q] Thanks! And chain 1 D4G ?
[A] 0.000914

[Q] Thanks! And chain 1 A13M ?
[A] 0.000146

[Q] Thanks! And chain 1 E3F ?
[A] 1.83e-05

Measured values drawn from paper PMC12102759 for this set.
